experiment: Cmax in Sprague-Dawley rat at 25 mg/kg, po measured upto 24 hrs by LC-MS/MS analysis
Format: ADME, organism-based
Set-up: route oral, dose 25 mg/kg, time <=24
details: in vivo
metricName: Cmax (ng/mL)
The reply should contain only the number, in ng/mL.

# lookup: Cmax of COc1nc(-c2cccc(-c3ccccc3)c2C)ccc1CNCCO 192

---

experiment: Clearance in Sprague-Dawley rat at 3 mg/kg, iv measured upto 24 hrs by LC-MS/MS analysis
Assay type: ADME, organism-based
details: in vivo
metricName: clearance (mL/min/kg)
Give the quantity in mL/min/kg, number only.

Suppose we examine the compound COc1nc(-c2cccc(-c3ccccc3)c2C)ccc1CNCCO ; what clearance value has been reported? 192
